Below is a list of entries, each paired with its recorded Plant response rating, Goosegrass value.
Tested on: goosegrass (Eleusine indica)
Test: Test E pre-/postemergence/post directed
Assay type: in vivo
Conditions: PREEMERGENCE, Rate 64 g/ha
outcome_measure: Plant response rating, Goosegrass

[[record]]
compound = "CCc1cnc(-n2ccc(C(F)(F)F)n2)nc1Cc1cccc(C(F)(F)F)c1 [Compound 46]"
target_desc = "goosegrass (Eleusine indica)"
outcome_measure = "Plant response rating, Goosegrass"
observed_result = 90

[[record]]
compound = "Cc1cnc(-n2cnc(C(F)(F)F)n2)nc1C(=O)c1cccc(C(F)(F)F)c1 [Compound 67]"
target_desc = "goosegrass (Eleusine indica)"
outcome_measure = "Plant response rating, Goosegrass"
observed_result = 90

[[record]]
compound = "Cc1cnc(-n2ccc(C(F)(F)F)n2)nc1Cc1cccc(C(F)(F)F)c1 [Example 2]"
target_desc = "goosegrass (Eleusine indica)"
outcome_measure = "Plant response rating, Goosegrass"
observed_result = 100

[[record]]
compound = "Cc1cnc(-c2ccc(C(F)(F)F)cc2)nc1Cc1cccc(OC(F)(F)F)c1 [Compound 15]"
target_desc = "goosegrass (Eleusine indica)"
outcome_measure = "Plant response rating, Goosegrass"
observed_result = 98


====

Test system: soybean (Glycine max)
Assay: Test B pre-/postemergence
Type: in vivo
Settings: Rate 500 g/ha, Preemergence
outcome_measure: Plant response rating, Soybean

[[record]]
smiles_representation = "Cc1cnc(-c2ccc(C(F)(F)F)cc2)nc1Cn1nc(C(F)(F)F)cc1C"
target_desc = "soybean (Glycine max)"
outcome_measure = "Plant response rating, Soybean"
observed_result = 3

[[record]]
smiles_representation = "Cc1cnc(-n2ccc(C(F)(F)F)n2)nc1C(=O)c1ccc(C(F)(F)F)cc1"
target_desc = "soybean (Glycine max)"
outcome_measure = "Plant response rating, Soybean"
observed_result = 0

[[record]]
smiles_representation = "Cc1cnc(-n2ccc(C(F)(F)F)n2)nc1C(=O)c1cccc(C(F)(F)F)c1"
target_desc = "soybean (Glycine max)"
outcome_measure = "Plant response rating, Soybean"
observed_result = 4

[[record]]
smiles_representation = "Cc1cnc(-c2ccc(C(F)(F)F)cc2)nc1Cc1cccc(C(F)(F)F)c1"
target_desc = "soybean (Glycine max)"
outcome_measure = "Plant response rating, Soybean"
observed_result = 5

[[record]]
smiles_representation = "Cc1cnc(-c2ccc(C(F)(F)F)cc2)nc1Cn1ccc(C#N)n1"
target_desc = "soybean (Glycine max)"
outcome_measure = "Plant response rating, Soybean"
observed_result = 0


====

System: momingglory (Ipomoea hederacea)
Test: Test B pre-/postemergence
Format: in vivo
Conditions: Rate 62 g/ha, Postemergence
Protocol: […] At the same time, these crop and weed species were also treated with postemergence applications of test chemicals formulated in the same manner. […] Treated plants and controls were maintained in a greenhouse for twelve to sixteen days, after which all species were compared to controls and visually evaluated. […]
outcome_measure: Morningglory plant response rating

[[record]]
compound = "Cc1cnc(-n2ccc(C(F)(F)C(F)(F)F)n2)nc1C(=O)c1cccc(C(F)(F)F)c1 [Compound 68]"
target_desc = "momingglory (Ipomoea hederacea)"
observed_result = 2

[[record]]
compound = "Cc1cnc(-c2ccc(C(F)(F)F)cc2)nc1C(=O)c1cccc(OC(F)(F)F)c1 [Compound 75]"
target_desc = "momingglory (Ipomoea hederacea)"
observed_result = 10

[[record]]
compound = "CCc1cnc(-n2ccc(C(F)(F)F)n2)nc1C(=O)c1cccc(C(F)(F)F)c1 [Compound 69]"
target_desc = "momingglory (Ipomoea hederacea)"
observed_result = 9

[[record]]
compound = "Cc1cnc(-n2ccc(C(F)(F)F)n2)nc1C(=O)c1cccc(C(F)(F)F)c1 [Compound 59]"
target_desc = "momingglory (Ipomoea hederacea)"
observed_result = 7

[[record]]
compound = "Cc1cnc(-n2cnc(C(F)(F)F)n2)nc1C(=O)c1cccc(OC(F)(F)F)c1 [Compound 64]"
target_desc = "momingglory (Ipomoea hederacea)"
observed_result = 2

[[record]]
compound = "Cc1cnc(-n2ccc(C(F)(F)C(F)(F)F)n2)nc1C(=O)c1cccc(OC(F)(F)F)c1 [Compound 62]"
target_desc = "momingglory (Ipomoea hederacea)"
observed_result = 3


====

System: blackgrass (Alopecurus myosuroides)
Assay: Test B pre-/postemergence
Format: in vivo
Details: Rate 250 g/ha, Postemergence
Threshold rule: Plant response rating, Blackgrass greater than or equal to 2 is yes; below that, no.

[[record]]
compound = "Cc1cnc(-c2ccc(C#N)cc2)nc1Cc1cccc(C(F)(F)F)c1 [Compound 30]"
qualitative_label = "no"

[[record]]
compound = "Cc1cnc(-n2ccc(C(F)(F)C(F)(F)F)n2)nc1C(=O)c1cccc(C(F)(F)F)c1 [Compound 68]"
qualitative_label = "yes"

[[record]]
compound = "Cc1cnc(-c2ccc(Cl)c(Cl)c2)nc1Cc1cccc(C#N)c1 [Compound 38]"
qualitative_label = "no"

[[record]]
compound = "Cc1cnc(-n2ccc(C(F)(F)F)n2)nc1Cn1ccc(C(F)(F)F)n1 [Compound 52]"
qualitative_label = "yes"

[[record]]
compound = "O=C(c1cccc(C(F)(F)F)c1)c1ccnc(-c2ccc(F)cc2F)n1 [Compound 76]"
qualitative_label = "no"


====

System: crabgrass (Digitaria sanguinalis)
Assay: Test B pre-/postemergence
Assay type: in vivo
Details: Rate 125 g/ha, Postemergence
outcome_measure: Plant response rating, Crabgrass

[[record]]
smiles_representation = "CCc1cnc(-c2ccc(C(F)(F)F)cc2)nc1Cc1cccc(C(F)(F)F)c1"
observed_result = 9

[[record]]
smiles_representation = "Cc1cnc(-c2ccc(C(F)(F)F)cc2)nc1Cn1cc(I)cn1"
observed_result = 3

[[record]]
smiles_representation = "Cc1cnc(-n2cnc(C(F)(F)F)n2)nc1Cc1cccc(C(F)(F)F)c1"
observed_result = 8

[[record]]
smiles_representation = "Cc1cnc(-c2ccc(Cl)cc2F)nc1Cc1cccc(C#N)c1"
observed_result = 2

[[record]]
smiles_representation = "Cc1cnc(-c2ccccc2F)nc1Cc1cccc(C#N)c1"
observed_result = 0

[[record]]
smiles_representation = "Cc1cnc(-c2cccc(C(F)(F)F)c2)nc1Cc1cccc(C(F)(F)F)c1"
observed_result = 8

[[record]]
smiles_representation = "CCc1cnc(-n2ccc(C(F)(F)F)n2)nc1Cc1cccc(C(F)(F)F)c1"
observed_result = 6

[[record]]
smiles_representation = "Cc1cnc(-c2ccc(Cl)cc2F)nc1Cc1cccc(C(F)(F)F)c1"
observed_result = 6


====

System: soybean (Glycine max)
Assay: Test B pre-/postemergence
Type: in vivo
Parameters: key: 0 is no effect; 10 is complete control
Details: Rate 250 g/ha, Postemergence
outcome_measure: Plant response rating, Soybean

[[record]]
compound = "COc1cnc(-n2ccc(C(F)(F)F)n2)nc1Cc1cccc(C(F)(F)F)c1"
outcome_measure = "Plant response rating, Soybean"
observed_result = 0

[[record]]
compound = "COc1cnc(-c2ccc(C(F)(F)F)cc2)nc1Cc1cccc(C(F)(F)F)c1"
outcome_measure = "Plant response rating, Soybean"
observed_result = 8

[[record]]
compound = "Cc1cnc(-c2ccc(Cl)c(Cl)c2)nc1Cc1cccc(C#N)c1"
outcome_measure = "Plant response rating, Soybean"
observed_result = 1

[[record]]
compound = "Cc1cnc(-n2ccc(C(F)(F)F)n2)nc1C(=O)c1ccc(C(F)(F)F)cc1"
outcome_measure = "Plant response rating, Soybean"
observed_result = 2

[[record]]
compound = "Cc1cnc(-c2ccc(C#N)cc2)nc1Cc1cccc(C(F)(F)F)c1"
outcome_measure = "Plant response rating, Soybean"
observed_result = 6

[[record]]
compound = "Cc1cnc(-c2ccc(C(F)(F)F)cc2)nc1Cn1cc(I)cn1"
outcome_measure = "Plant response rating, Soybean"
observed_result = 5

[[record]]
compound = "Cc1cnc(-c2ccc(C(F)(F)F)cc2)nc1Cn1ccc(C(F)(F)F)n1"
outcome_measure = "Plant response rating, Soybean"
observed_result = 10

[[record]]
compound = "Cc1cnc(-c2ccc(F)cc2F)nc1Cc1cccc(C(F)(F)F)c1"
outcome_measure = "Plant response rating, Soybean"
observed_result = 7

[[record]]
compound = "Cc1cnc(-c2ccc(C(F)(F)F)cc2)nc1Cn1ccc(C(F)(F)C(F)(F)F)n1"
outcome_measure = "Plant response rating, Soybean"
observed_result = 5

[[record]]
compound = "Cc1cnc(-c2ccc(C(F)(F)F)cc2)nc1C(Cl)c1cccc(C(F)(F)F)c1 (racemic)"
outcome_measure = "Plant response rating, Soybean"
observed_result = 6

[[record]]
compound = "COC(=O)C(c1cccc(C(F)(F)F)c1)c1nc(-c2ccc(C(F)(F)F)cc2)ncc1C (racemic)"
outcome_measure = "Plant response rating, Soybean"
observed_result = 6

[[record]]
compound = "Cc1cnc(-n2cnc(C(F)(F)F)n2)nc1Cn1ccc(C(F)(F)F)n1"
outcome_measure = "Plant response rating, Soybean"
observed_result = 10

[[record]]
compound = "Cc1cnc(-c2ccc(Cl)cc2F)nc1Cc1cccc(C#N)c1"
outcome_measure = "Plant response rating, Soybean"
observed_result = 2

[[record]]
compound = "CCc1cnc(-n2ccc(C(F)(F)F)n2)nc1C(=O)c1cccc(C#N)c1"
outcome_measure = "Plant response rating, Soybean"
observed_result = 5

[[record]]
compound = "Cc1cnc(-c2ccc(C(F)(F)F)cc2)nc1C(=O)c1ccc(C(F)(F)F)cc1"
outcome_measure = "Plant response rating, Soybean"
observed_result = 2

[[record]]
compound = "Cc1cnc(-c2ccccc2F)nc1Cc1cccc(C#N)c1"
outcome_measure = "Plant response rating, Soybean"
observed_result = 0

[[record]]
compound = "Cc1cnc(-c2ccc(C(F)(F)F)cc2)nc1C(=O)c1cccc(OC(F)(F)F)c1"
outcome_measure = "Plant response rating, Soybean"
observed_result = 3

[[record]]
compound = "Cc1cnc(-n2cnc(C(F)(F)F)c2)nc1C(=O)c1cccc(OC(F)(F)F)c1"
outcome_measure = "Plant response rating, Soybean"
observed_result = 2

